# targetEntity: cytoplasmic domain of the human VEGF receptor (VEGFR-2) (Homo sapiens, UniProt P35968)
# Construct: The cytoplasmic domain of the human VEGF receptor (VEGFR-2) was expressed as a Histidine-tagged fusion protein; His tag (Histidine-tagged fusion)
# Sequence (P35968 786-1356 limits assumed): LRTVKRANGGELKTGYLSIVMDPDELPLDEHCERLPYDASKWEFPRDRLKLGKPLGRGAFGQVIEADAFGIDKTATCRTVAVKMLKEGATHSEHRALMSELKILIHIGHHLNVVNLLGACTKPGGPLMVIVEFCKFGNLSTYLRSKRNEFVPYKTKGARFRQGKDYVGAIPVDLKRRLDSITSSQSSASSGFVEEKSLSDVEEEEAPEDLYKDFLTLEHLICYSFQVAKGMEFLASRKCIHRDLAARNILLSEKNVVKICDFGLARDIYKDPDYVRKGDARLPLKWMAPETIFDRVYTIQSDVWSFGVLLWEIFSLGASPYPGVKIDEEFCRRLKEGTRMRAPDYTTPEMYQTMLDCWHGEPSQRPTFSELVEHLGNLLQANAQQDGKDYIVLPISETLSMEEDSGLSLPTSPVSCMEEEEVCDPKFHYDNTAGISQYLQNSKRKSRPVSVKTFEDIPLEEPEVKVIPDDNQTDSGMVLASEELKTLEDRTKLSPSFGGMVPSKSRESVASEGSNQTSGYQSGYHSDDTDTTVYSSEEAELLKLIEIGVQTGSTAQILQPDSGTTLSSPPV
# assayComment: KDR Assay
# measurementSetup: His-VEGFR-2, 3.6 μM ATP, poly-Glu-Tyr (4:1)
assayReadout: IC50 (nM)

(I) O=C1Nc2ccc(Cl)cc2C1=CNc1cc[nH]n1 [Example 9]
(II) Cc1oc(C(C)(C)C)cc1-c1cc(NC=C2C(=O)Nc3ccc(F)cc32)[nH]n1 [Example 28]
Which shows the larger IC50 value: I or II ? Bench note: the answer is the label of the chosen record.
II
(II: 15700 nM, I: 1130 nM)

(P) Cc1cc(NC=C2C(=O)Nc3cc(F)ccc32)no1 [Example 48]
(Q) CCn1nccc1NC=C1C(=O)Nc2ccccc21 [Example 46]
Could you point out whether the larger IC50 belongs to P or to Q ? Indicate which entry you chose by stating its label.
Q
(Q: 11600 nM, P: 1390 nM)

(A) CC(C)(C)c1cc(NC=C2C(=O)Nc3ccccc32)no1 [Example 41]
(B) CC(C)(C)c1cc(NC=C2C(=O)Nc3ccccc32)n[nH]1 [Example 22]
(C) O=C1Nc2ccccc2C1=CNc1ccon1 [Example 43]
(D) Cc1cc(NC=C2C(=O)Nc3ccc(F)cc32)n[nH]1 [Example 26]
(E) Cc1oc(C(C)(C)C)cc1-c1cc(NC=C2C(=O)Nc3cc(F)ccc32)[nH]n1 [Example 52]
Hello, I need these entries ordered by IC50, highest reading first. Thanks! Please write the labels in the order that was asked for.
E, B, C, A, D
